Give measured pIC50 for each item. Keep answers brief.
test system: HAL-01; experiment: cells; format: functional, cell-based; details: Homo sapiens;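 also: growth inhibition of human HAL-01 cells, read out with a cell viability assay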
Description: SANGER: Inhibition of human HAL-01 cell growth in a cell viability assay.
One number for each entry, as −log10 of the molar value.

> print(dat)
                                   molecule  experimental.value
1  CC[C@@]1(O)C(=O)OCc2c1cc1n(c2=O)Cc2cc3ccccc3nc2-1 [CAMPTOTHECIN]                8.59

Let us move to another entry and its pIC50.
Which pIC50 is reported for this molecule? Cn1c(=O)n(-c2ccc(C(C)(C)C#N)cc2)c2c3cc(-c4cnc5ccccc5c4)ccc3ncc21 [DACTOLISIB]
7.25
